I'd appreciate it if you could supply selectivity ratio values for the items below.
Assay: Therapeutic index, ratio of CC50 for cat FL-4 cells to EC50 for Feline immunodeficiency virus infected in cat FL-4 cells
Format: cell-based
Conditions: read-out: Ratio CC50/EC50
Give the figure by itself; no unit, no explanation.

Identify measured selectivity ratio corresponding to CCN(CC)c1sc(N(CC)CC)c2c1SSc1c(N(CC)CC)sc(N(CC)CC)c1SS2
1

Please supply the value of reported selectivity ratio for the item CCn1c(C)c2c(c1C)SSc1c(c(C)n(CC)c1C)SS2
1.6

Quote selectivity ratio reported for Cc1c2c(c(C)n1Cc1ccccc1)SSc1c(c(C)n(Cc3ccccc3)c1C)SS2 please.
18.9

Give selectivity ratio for CCn1c(Cl)c2c(c1Cl)SSc1c(c(Cl)n(CC)c1Cl)SS2
1

Given c1c2c(cc3c1SSc1cc4c(cc1SS3)OCO4)OCO2 , respond with its selectivity ratio.
62.1

====

Test: Cytotoxicity against cat CRFK cells assessed as cell viability at 10 uM after 24 hrs by MTT assay
Type: cell-based, Felis catus
Conditions: read-out: Activity
Consider the following compounds; for each one, report its viability at 24 h, 10 µM.

Give reported viability at 24 h, 10 µM value for c1c2c(cc3c1SSc1cc4c(cc1SS3)OCCO4)OCCO2
91.1%

Give the reported value of viability at 24 h, 10 µM for this record: CCn1c(C)c2c(c1C)SSc1c(c(C)n(CC)c1C)SS2
> 100%

Specify reported viability at 24 h, 10 µM for the compound shown: Cc1nnc(C(=O)NC(C)(C)c2nc(C(=O)NCc3ccc(F)cc3)c(O)c(=O)n2C)o1
> 100%

Return reported viability at 24 h, 10 µM. Input compound: CCn1c(Cl)c2c(c1Cl)SSc1c(c(Cl)n(CC)c1Cl)SS2
> 100%

# return recorded viability at 24 h, 10 µM for input CCN(CC)c1sc(N(CC)CC)c2c1SSc1c(N(CC)CC)sc(N(CC)CC)c1SS2
> 100%

Write down viability at 24 h, 10 µM measured for item Cc1cn([C@H]2C[C@H](N=[N+]=[N-])[C@@H](CO)O2)c(=O)[nH]c1=O
> 100%

Consider the compound CC(C)(C)n1cc2c(c1)SSc1cn(C(C)(C)C)cc1SS2 and give its recorded viability at 24 h, 10 µM.
> 100%

Entry Cn1c(Cl)c2c(c1Cl)SSc1c(c(Cl)n(C)c1Cl)SS2 needs its viability at 24 h, 10 µM filled in; supply it.
> 100%

Hello, please tell me recorded viability at 24 h, 10 µM for this one: c1c2c(cc3c1SSc1cc4c(cc1SS3)OCO4)OCO2
77%

Please supply the value of reported viability at 24 h, 10 µM for the item Cc1c2c(c(C)n1Cc1ccccc1)SSc1c(c(C)n(Cc3ccccc3)c1C)SS2
> 100%

Supply viability at 24 h, 10 µM value. Item: COc1cc2c(cc1OC)SSc1cc(OC)c(OC)cc1SS2
75.3%

For the compound Cn1c2c(c3ccccc31)SSc1c(c3ccccc3n1C)SS2 , report viability at 24 h, 10 µM.
> 100%

====

Give measured CC50 at 168 h for each item. Keep answers brief.
Experiment: Cytotoxicity against IL2-independent cat FL-4 cells assessed as reduction in cell viability after 7 days by MTT assay
Type: cell-based, Felis catus
Details: IL2-independent FL-4 cells

Report CC50 at 168 h for CC(C)(C)n1cc2c(c1)SSc1cn(C(C)(C)C)cc1SS2
> 100 µM

Recall and state the measured CC50 at 168 h for CCN(CC)c1sc(N(CC)CC)c2c1SSc1c(N(CC)CC)sc(N(CC)CC)c1SS2 .
> 100 µM

Recall and state the measured CC50 at 168 h for Cc1c2c(c(C)n1Cc1ccccc1)SSc1c(c(C)n(Cc3ccccc3)c1C)SS2 .
58.2 µM

Provide one value: measured CC50 at 168 h of CCn1c(C)c2c(c1C)SSc1c(c(C)n(CC)c1C)SS2
> 100 µM

For the compound Cc1nnc(C(=O)NC(C)(C)c2nc(C(=O)NCc3ccc(F)cc3)c(O)c(=O)n2C)o1 , give its measured CC50 at 168 h value.
> 100 µM

Look up and report measured CC50 at 168 h for this entry: Cc1cn([C@H]2C[C@H](N=[N+]=[N-])[C@@H](CO)O2)c(=O)[nH]c1=O
> 100 µM

Identify the reported CC50 at 168 h for the following entry. c1c2c(cc3c1SSc1cc4c(cc1SS3)OCO4)OCO2
5.79 µM

Answer with reported CC50 at 168 h of COc1cc2c(cc1OC)SSc1cc(OC)c(OC)cc1SS2
> 100 µM

// fetch CC50 at 168 h given entry CCn1c(Cl)c2c(c1Cl)SSc1c(c(Cl)n(CC)c1Cl)SS2
> 100 µM

Assign CC50 at 168 h to the following record: c1c2c(cc3c1SSc1cc4c(cc1SS3)OCCO4)OCCO2
> 100 µM

Tell us which CC50 at 168 h value is on record for Cn1c(Cl)c2c(c1Cl)SSc1c(c(Cl)n(C)c1Cl)SS2
> 100 µM

Give recorded CC50 at 168 h. Cn1c2c(c3ccccc31)SSc1c(c3ccccc3n1C)SS2
> 100 µM
